# assay-comment: qHTS assay to identify small molecule antagonists of the farnesoid-X-receptor (FXR) signaling pathway - cell viability counter screen (AID 743221); also: nearly all actives have a fitted effect of over 50% in size
# assay-conditions: FXR-bla HEK293T viability, CellTiter-Glo luminescence, 16 h; series mostly up to 62.6 µM
# Excerpt: National Center for Advancing Translational Sciences [NCATS] NIH Chemical Genomics Center [NCGC] U.S. Environmental Protection Agency [EPA] National Institutes of Environmental Health Sciences [NIEHS] National Toxicology Program [NTP] U.S. Food and Drug Administration [FDA] The farnesoid-X-receptor (FXR), a nuclear hormone receptor, is highly expressed in liver, intestine, kidney and adrenal cortex. Natural ligands of FXR are the bile acids (Cholic acid, Chenodeoxy cholic acid etc). […]
Inconclusive results are not listed. Calls of active or inactive are those of the source. Calls follow the shape of the dose curve; as a rule, active = well fitted cell-killing curve with a large enough effect in the repeat runs (not every such curve was filed as active); inconclusive = weak or mixed curves, or effect the other way; inactive = no such curve, though single readings can be large or run the other way.

{"columns": ["molecule", "outcome"],
 "data": [
  ["CCN1CC(CCN2CCOCC2)C(c2ccccc2)(c2ccccc2)C1=O (centres undefined)", "inactive"],
  ["CC(C)=CCCC(C)CCOC=O (centres undefined)", "inactive"],
  ["Nc1cccc(S(=O)(=O)O)c1", "inactive"],
  ["CC(C)(C)c1cccc(O)c1", "inactive"],
  ["CCOC(=O)C(Br)c1ccccc1 (centres undefined)", "inactive"],
  ["CCCC1CCC(=O)O1 (centres undefined)", "inactive"],
  ["O=Cc1ccc(O)c(O)c1O", "inactive"],
  ["CC(=O)N(CC(O)CN(C(C)=O)c1c(I)c(C(=O)NCC(O)CO)c(I)c(C(=O)NCC(O)CO)c1I)c1c(I)c(C(=O)NCC(O)CO)c(I)c(C(=O)NCC(O)CO)c1I (centres undefined)", "inactive"],
  ["CN(C)Cc1ccccc1", "inactive"],
  ["NCCCN1CCN(CCCN)CC1", "inactive"],
  ["CC(Oc1c(Cl)cccc1Cl)C1=NCCN1 (centres undefined)", "inactive"],
  ["Cc1ccc(C)c(N)c1", "inactive"],
  ["CC(C)O", "inactive"],
  ["CC(C)(C)C1CCCCC1=O (centres undefined)", "inactive"]
]}
